Values compiled from paper PMC3454511.

assay: Plasma protein binding by rapid-equilibrium dialysis, mouse; conditions: 37 °C for 5 h
# protein binding mouse listing for each entry below
Give your result in % bound as a bare value.

Answered examples (4):
{"columns": ["compound", "protein binding mouse, % bound"],
 "data": [
  ["CN1CCCCN2[C@H](CO)[C@H](c3ccccc3)[C@@H]2C1 [29c]", 5],
  ["CCCN1[C@H](CO)[C@H](c2ccccc2)C12CN(C)C2 [30b]", "−6.0"],
  ["CCCN1C2CNCC1C2c1ccccc1 (centres unmarked) [27a]", 35],
  ["CCCN1[C@@H]2COc3ccccc3[C@@H]2[C@@H]1CNS(C)(=O)=O [32b]", 37]
]}

Attention now turns to another entry.
Inquiry: Which protein binding mouse value belongs to CCCN1[C@H](CO)[C@H](c2ccccc2)C12CN(C(C)=O)C2 [30c] ?
Reply text: 32

* * *

experiment: Microsomal stability, human; details: % parent remaining at 1 hour
# microsomal stability human listing for each entry below
Give your result in % remaining as a bare value.

{"columns": ["compound", "microsomal stability human (% remaining)"],
 "data": [
  ["OC[C@@H]1[C@H](c2ccccc2)[C@@H]2CNCCCCN12 [29b]", 86],
  ["CCCN1[C@H](CO)[C@H](c2ccccc2)C12CN(C)C2 [30b]", 99],
  ["CS(=O)(=O)N1CC(=O)N2[C@H](CO)[C@H](c3ccccc3)[C@@H]2C1 [28c]", 104],
  ["CCCN1[C@@H]2COc3ccccc3[C@@H]2[C@@H]1CNC(=O)c1ccccc1 [32a]", 0],
  ["CCCN1[C@@H]2COc3ccccc3[C@@H]2[C@@H]1CNS(C)(=O)=O [32b]", 73]
]}

Inquiry: Which microsomal stability human value belongs to CCCN1C2CNCC1C2c1ccccc1 (stereo not drawn) [27a] ?
Reply text: 94

Inquiry: Which microsomal stability human value belongs to CCCN1C2CN(C(C)=O)CC1C2c1ccccc1 (stereo not drawn) [27b] ?
Reply text: 93

Inquiry: Which microsomal stability human value belongs to CN1CC(=O)N2[C@H](CO)[C@H](c3ccccc3)[C@@H]2C1 [28a] ?
Reply text: 112

Inquiry: Which microsomal stability human value belongs to OC[C@@H]1[C@H](c2ccc(Br)cc2)[C@@H]2CNCCCCN12 [29a] ?
Reply text: 96

* * *

assay: Plasma stability, human; conditions: % parent remaining at 5 h
The threshold is 80 % remaining. Values of plasma stability human beneath it are tagged t; values meeting or exceeding it are tagged f.

{"columns": ["compound", "classification"],
 "data": [
  ["CCCN1[C@H](CO)[C@H](c2ccccc2)[C@@H]1CN [26b]", "f"],
  ["OC[C@@H]1[C@H](c2ccc(Br)cc2)[C@@H]2CNCCCCN12 [29a]", "f"],
  ["CCCN1C2CN(Cc3ccc(F)cc3)CC1C2c1ccccc1 (stereo not shown) [27d]", "t"]
]}

Inquiry: Identify whether the compound CCCN1C(CO)C2c3ccccc3N(S(C)(=O)=O)CC21 (racemic) [31c] records plasma stability human below 80 % remaining.
Reply text: f

Inquiry: Identify whether the compound CCCN1C(CO)C2c3ccccc3NCC21 (racemic) [31a] records plasma stability human below 80 % remaining.
Reply text: f

Inquiry: Identify whether the compound CCCN1C2CN(C(C)=O)CC1C2c1ccccc1 (stereo not shown) [27b] records plasma stability human below 80 % remaining.
Reply text: f
